# METHOD_SUMMARY: Phase 1 multiple ascending dose study, pharmacokinetics
# Type: in vivo
# TEST_CONTEXT: human, blood, po; SDD tablets 600 mg orally once daily, repeat (5) daily doses, mean (±SD)
RESULT_TYPE: Cmax (ng/mL)
Return type: number; implicit unit ng/mL.

Ask: Requested field: Cmax. Item: CCc1cnc(N2CCC(c3nc(COc4ccc(-n5cnnn5)cc4)cs3)CC2)nc1
Result: 3560

* * *

# METHOD_SUMMARY: Phase 1 multiple ascending dose study, pharmacokinetics
# Format: in vivo
# TEST_CONTEXT: human, blood, po; SDD tablets 600 mg orally once daily, repeat (5) daily doses, mean (±SD); read-out: AUC0-24 h
RESULT_TYPE: AUC(0-t) (ng·h/mL)
Return type: number; implicit unit ng·h/mL.

Ask: Requested field: AUC(0-t). Item: CCc1cnc(N2CCC(c3nc(COc4ccc(-n5cnnn5)cc4)cs3)CC2)nc1
Result: 57900

* * *

# METHOD_SUMMARY: Phase 1 multiple ascending dose study, pharmacokinetics
# Assay type: in vivo
# TEST_CONTEXT: human, blood, po; SDD tablets 300 mg orally once daily, repeat (5) daily doses, mean (±SD); read-out: AUC0-24 h
RESULT_TYPE: AUC(0-t) (ng·h/mL)
Return type: number; implicit unit ng·h/mL.

Ask: Requested field: AUC(0-t). Item: CCc1cnc(N2CCC(c3nc(COc4ccc(-n5cnnn5)cc4)cs3)CC2)nc1 [Compound A]
Result: 30000

* * *

# METHOD_SUMMARY: Phase 1 multiple ascending dose study, pharmacokinetics
# Assay type: in vivo
# TEST_CONTEXT: human, blood, po; SDD tablet 100 mg orally once daily, repeat (5) daily doses, mean (±SD)
RESULT_TYPE: Tmax

Ask: Requested field: Tmax. Item: CCc1cnc(N2CCC(c3nc(COc4ccc(-n5cnnn5)cc4)cs3)CC2)nc1
Result: 2.8 h

* * *

# METHOD_SUMMARY: Phase 1 multiple ascending dose study, pharmacokinetics
# Type: in vivo
# TEST_CONTEXT: human, blood, po; SDD tablets 300 mg orally once daily, repeat (5) daily doses, mean (±SD)
# From the text: This is a single center, phase 1, double-blind, placebo-controlled, multiple ascending dose study of Compound A given orally as a reformulated tablet (spray dried dispersion, or SDD) to otherwise healthy subjects with “pre-diabetes” (impaired fasting glucose, impaired glucose tolerance, or HbA1C≧5.8), or diet-controlled type 2 diabetes mellitus. […]
RESULT_TYPE: AUC(0-inf) (µg·h/mL)
Return type: number; implicit unit µg·h/mL.

Ask: Requested field: AUC(0-inf). Item: CCc1cnc(N2CCC(c3nc(COc4ccc(-n5cnnn5)cc4)cs3)CC2)nc1
Result: 45

* * *

# METHOD_SUMMARY: In vivo systemic exposure in male beagle dogs, oral dosing
# TEST_CONTEXT: dog, 200 mg/kg orally, read-out: AUC0-24 hr
RESULT_TYPE: AUC(0-t) (ng·h/mL)
Return type: number; implicit unit ng·h/mL.

Ask: Requested field: AUC(0-t). Item: CCc1cnc(N2CCC(c3nc(COc4ccc(-n5cnnn5)cc4)cs3)CC2)nc1
Result: 17000

* * *

# METHOD_SUMMARY: In vivo systemic exposure in male beagle dogs, oral dosing
# TEST_CONTEXT: dog, 10 mg/kg orally
RESULT_TYPE: Cmax (ng/mL)
Return type: number; implicit unit ng/mL.

Ask: Requested field: Cmax. Item: CCc1cnc(N2CCC(c3nc(COc4ccc(-n5cnnn5)cc4)cs3)CC2)nc1
Result: 560
